# Lookup of reported thermal melting temperature keyed by entry
Biological target: HLA-B*07:02;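 note: lysates heated 10 min at 37–73 °C, complexes pulled down with pan-HLA I antibody, peptide signal by DIA-MS relative to 37 °C, Tm where half the complex is unfolded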
Assay: thermal melting temperature (Tm) of peptide-HLA complex; higher = more thermostable pHLA complex
Details: C1R-B*07:02
Whole data set: some 1,400 sequences, median “thermal melting temperature (Tm) of peptide-HLA complex” near 60, cut for the lowest 2% near 45. Many of the other results were omitted from the sample, so the lowest values are more common in it than they were.
experimentalReadout: thermal melting temperature (°C)

• LPHAVSSLL = 62.4
• GPRSSLRVL = 58.9
• IPIGGGTSV = 41.6
• APREHPFVL = 61
• QPNLKLLAM = 62.9
• IPTKKSQVF = 58.9
• APRSVAVSSI = 59.4
• TPMPKDVRQSL = 44.5
